Sourced from patent US7098340B2

Target: androgen receptor (Homo sapiens, UniProt P10275)
Sequence (P10275 1-920 Q868H): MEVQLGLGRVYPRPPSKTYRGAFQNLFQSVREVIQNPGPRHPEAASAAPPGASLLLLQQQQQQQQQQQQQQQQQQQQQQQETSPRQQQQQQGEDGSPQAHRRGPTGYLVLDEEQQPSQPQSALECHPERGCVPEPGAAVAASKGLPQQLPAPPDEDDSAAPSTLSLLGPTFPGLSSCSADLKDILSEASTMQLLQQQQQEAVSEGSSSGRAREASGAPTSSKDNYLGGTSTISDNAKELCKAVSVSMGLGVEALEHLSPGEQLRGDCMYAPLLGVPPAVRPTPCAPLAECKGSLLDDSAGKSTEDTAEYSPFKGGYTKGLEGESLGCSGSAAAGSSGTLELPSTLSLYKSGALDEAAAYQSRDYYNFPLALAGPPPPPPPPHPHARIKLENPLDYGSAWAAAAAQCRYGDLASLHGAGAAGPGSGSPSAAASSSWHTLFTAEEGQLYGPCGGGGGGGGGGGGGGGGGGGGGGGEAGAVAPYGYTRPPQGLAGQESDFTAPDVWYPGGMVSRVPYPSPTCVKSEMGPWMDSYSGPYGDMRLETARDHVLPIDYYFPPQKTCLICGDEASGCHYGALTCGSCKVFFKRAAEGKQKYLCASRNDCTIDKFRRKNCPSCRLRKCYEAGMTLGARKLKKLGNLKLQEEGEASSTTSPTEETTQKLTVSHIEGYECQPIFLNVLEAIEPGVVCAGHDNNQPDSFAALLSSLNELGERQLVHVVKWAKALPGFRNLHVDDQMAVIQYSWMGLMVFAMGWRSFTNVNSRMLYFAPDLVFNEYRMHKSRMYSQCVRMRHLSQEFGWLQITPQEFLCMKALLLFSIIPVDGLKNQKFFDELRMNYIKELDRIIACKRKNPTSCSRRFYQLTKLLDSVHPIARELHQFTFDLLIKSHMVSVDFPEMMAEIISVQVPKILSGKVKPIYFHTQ
Assay: AR Antagonist Cell Assay (MMTV-luciferase reporter, DHT-stimulated)
Conditions: MDA-MB453-MMTV clone 54-19 cells; antagonism of 100 pM DHT, 17 hr, luciferase readout
pIC50: −log10 of the molar value.
reported-endpoint: pIC50

Below, 3 compounds whose answers are already recorded.
compound: O=c1cc(C(F)(F)F)c2cc(Cc3ccc(S(=O)(=O)NCc4ccc(Cl)cc4Cl)cc3)ccc2[nH]1
reported-endpoint: pIC50
recorded-result: ~5.00

compound: CCOC(=O)CC(NS(=O)(=O)c1ccc(Cc2ccc3[nH]c(=O)cc(C(F)(F)F)c3c2)cc1)c1ccccc1 (stereo not shown)
reported-endpoint: pIC50
recorded-result: < 5.00

compound: O=c1cc(C(F)(F)F)c2cc(Cc3ccc(S(=O)(=O)NCc4c(F)ccc(F)c4Cl)cc3)ccc2[nH]1
reported-endpoint: pIC50
recorded-result: < 5.00

Report pIC50 for `Cc1ccc(F)cc1NS(=O)(=O)c1ccc(Cc2ccc3[nH]c(=O)cc(C(F)(F)F)c3c2)cc1` please.
5.95
